Data credit: paper PMC6687188

Target system: recombinant CpLDH protein (Cryptosporidium parvum, UniProt Q9GT92, F198L/K295E/R251K)
Class assignment keyed on MEAN CpLDH INHIBITION (%), ranges interval 1: < -20%; interval 2: ≥ -20% and < -10%; interval 3: ≥ -10%

{"Molecule": "Nc1nc(N)c(-c2cccc(C(F)(F)F)c2)c(Cc2cccc(C(F)(F)F)c2)n1", "Assigned class": "interval 1"}
{"Molecule": "COC(=O)c1ccccc1OCc1cc(=O)oc2ccc(C)cc12", "Assigned class": "interval 1"}
{"Molecule": "CCCCOc1ccc(NC(N)=Nc2ccc(Cl)cc2)cc1", "Assigned class": "interval 1"}
{"Molecule": "COc1ccc(/C=C2\\CCCc3ccccc3C2=O)cc1", "Assigned class": "interval 2"}
{"Molecule": "CCCC(=O)[O-].[Na+]", "Assigned class": "interval 3"}
{"Molecule": "O=C1Nc2c(Cl)cc(Cl)cc2/C1=N/N=C/c1ccco1", "Assigned class": "interval 1"}
{"Molecule": "CN(C)CCCN1c2ccccc2Sc2ccc3ccccc3c21", "Assigned class": "interval 3"}
{"Molecule": "O=C1N[C@@H]2C(=C[C@H](O)[C@@H](O)[C@H]2O)c2cc3c(cc21)OCO3", "Assigned class": "interval 3"}
{"Molecule": "COc1ccc2[nH]c3c(C)c4ccncc4c(C)c3c2c1", "Assigned class": "interval 2"}
{"Molecule": "C=C1C(=O)C23CC[C@@H]4C(C)(C(=O)OC)CCCC4(C)[C@@H]2CCC1(O)C3 (stereo partly shown)", "Assigned class": "interval 1"}
{"Molecule": "COc1cccc(/C=N\\NC(=O)C(C)SC(C)C(=O)N/N=C/c2cccc(OC)c2)c1 (stereo not shown)", "Assigned class": "interval 1"}
{"Molecule": "C/C=C(\\CCC1NCCc2c1[nH]c1ccccc21)[Si](C)(C)C (stereo not shown)", "Assigned class": "interval 2"}
{"Molecule": "O=S(=O)(c1cccc(N=C=S)c1)c1cccc(N=C=S)c1", "Assigned class": "interval 3"}
{"Molecule": "COC(=O)c1c[nH]c2c1-c1cc(C(=O)OCc3ccccc3)n(S(=O)(=O)c3ccc(C)cc3)c1C(=O)C2=O", "Assigned class": "interval 1"}
{"Molecule": "CCOC(=O)c1ccc(N=Cc2ccc(N(CCC#N)CCC#N)cc2)cc1", "Assigned class": "interval 2"}
{"Molecule": "CC(/C=N/N=C(N)N)=N\\N=C(N)N", "Assigned class": "interval 1"}
{"Molecule": "Cc1cc2c(c3oc(C4(C)OC4C4OC4C)cc(=O)c13)C(=O)c1c(O)c(C3CC(C)(N(C)C)C(O)C(C)O3)cc(C3CC(N(C)C)C(O)C(C)O3)c1C2=O (stereo not shown)", "Assigned class": "interval 3"}
{"Molecule": "C(=C/c1nc2ccccc2o1)/c1ccc2c(c1)OCO2", "Assigned class": "interval 1"}

---

MEAN CpLDH INHIBITION (%), recombinant CpLDH protein (Cryptosporidium parvum, UniProt Q9GT92, F198L/K295E/R251K): measured values
Measured metric: MEAN CpLDH INHIBITION (%)

{"Molecule": "CN(C)c1ccc(/C=C2\\Cc3ccccc3C2=O)cc1Br", "Readout number": -30.02}
{"Molecule": "COc1ccc(/C=C2\\CCc3ccccc3C2=O)cc1OC", "Readout number": -25.23}
{"Molecule": "COC(=O)[C@@]12OC[C@]34[C@H]([C@@H](O)[C@@H]1O)[C@@]1(C)CC(=O)C(O)=C(C)[C@@H]1C[C@H]3OC(=O)[C@H](OC(=O)C=C(C)C)[C@@H]24", "Readout number": -39.50}
{"Molecule": "Fc1cccc(F)c1C1SCc2nc3ccccc3n21 (stereo not shown)", "Readout number": -32.18}

---

Target system: recombinant CpLDH protein (Cryptosporidium parvum, UniProt Q9GT92, F198L/K295E/R251K)
Listed here are compounds together with their documented MEAN CpLDH INHIBITION (%).

{"Compound": "O=C(C[n+]1ccc2ccccc2c1)c1ccc2ccc3ccccc3c2c1", "MEAN CpLDH INHIBITION (%)": -39.94}
{"Compound": "CC1=CC(=O)c2cccc(NC3=NCCO3)c21", "MEAN CpLDH INHIBITION (%)": -15.78}
{"Compound": "CC1CCOC(=O)/C=C/C=C/C(=O)OC2CC3OC4C5OC5(C)C(O)CC4(COC(=O)C1O)C2(C)C31CO1 (stereo not shown)", "MEAN CpLDH INHIBITION (%)": -4.71}
{"Compound": "CN(C)CCCN1c2ccc3ccccc3c2Sc2cccc(Cl)c21", "MEAN CpLDH INHIBITION (%)": -11.52}
{"Compound": "CC(C)C1=C(O)C2=C(C(=O)C1=O)[C@@]1(C)CCCC(C)(C)[C@@H]1C[C@H]2O", "MEAN CpLDH INHIBITION (%)": -16.31}
{"Compound": "CC1=C2C(=CO[C@H](C)[C@H]2C)C(=O)C(C(=O)O)=C1O", "MEAN CpLDH INHIBITION (%)": -47.49}
{"Compound": "COc1cc(/C=C(\\C)c2ccc3c(c2)OCO3)cc(OC)c1OC", "MEAN CpLDH INHIBITION (%)": -69.44}
{"Compound": "[Cl-].c1csc(C[N+]23CN4CN(CN(C4)C2)C3)c1", "MEAN CpLDH INHIBITION (%)": -3.53}
{"Compound": "C[C@@H]1CC[C@H]2C(C)(C)[C@H]3C[C@@]12CC[C@@]3(C)O", "MEAN CpLDH INHIBITION (%)": -51.63}
{"Compound": "Nc1nc(N)c2cc(Sc3cccc(C(F)(F)F)c3)ccc2n1", "MEAN CpLDH INHIBITION (%)": -11.03}
{"Compound": "Cc1cc(N(CCOS(C)(=O)=O)CCOS(C)(=O)=O)ccc1C=Nc1ccc(-c2csc(-c3ccccc3)n2)c(Cl)c1", "MEAN CpLDH INHIBITION (%)": -15.80}
{"Compound": "COC(=O)Nc1nc2ccc(Br)cc2[nH]1", "MEAN CpLDH INHIBITION (%)": -36.36}
{"Compound": "Cc1cc(-c2nc3ccccc3s2)ccc1N", "MEAN CpLDH INHIBITION (%)": -21.24}
{"Compound": "CC1=CC(O)C(O)C2(C)C1CC1OC(=O)C(O)C3C(C)C(O)C4(O)OCC13C42 (stereo not shown)", "MEAN CpLDH INHIBITION (%)": 0.167}
{"Compound": "CC(C)OP(=O)(OC(C)C)C(N(C)C)P(=O)(OC(C)C)OC(C)C.[Cl][Sn]([Cl])([Cl])[c]1ccccc1", "MEAN CpLDH INHIBITION (%)": -28.84}
{"Compound": "COc1ccc2c(O)c3[n+](cc2c1OC)CCc1cc2c(cc1-3)OCO2", "MEAN CpLDH INHIBITION (%)": -31.27}

---

Target system: recombinant CpLDH protein (Cryptosporidium parvum, UniProt Q9GT92, F198L/K295E/R251K)
If the reported MEAN CpLDH INHIBITION (%) equals or exceeds -30%, assign 1 (yes). If not, assign 0 (no).

{"Compound": "Cc1ccc([S+](c2ccc(C)cc2)c2ccc(C)cc2)cc1", "Assigned class": "0 (no)"}
{"Compound": "CC(=O)OCc1c2ccccc2c(C)c2c1cc(F)c1ccccc12", "Assigned class": "1 (yes)"}
{"Compound": "O=C(CC1(O)C(=O)Nc2c(Cl)ccc(Cl)c21)c1ccc(Cl)cc1Cl (centres unmarked)", "Assigned class": "0 (no)"}
{"Compound": "N#CC1=C(N)Oc2c(ccc3cccnc23)C1c1ccccc1 (centres unmarked)", "Assigned class": "0 (no)"}
{"Compound": "CN1CCN(CCNc2ccc(CO)c3sc4ccccc4c(=O)c23)CC1", "Assigned class": "1 (yes)"}
{"Compound": "NC(N)=N/N=C(\\c1ccc(Cl)cc1)C1CC1", "Assigned class": "1 (yes)"}
{"Compound": "C=C1[C@@H](C)[C@H]2[C@H](Cc3ccccc3)NC(=O)C23[C@H](OC(C)=O)/C=C/[C@@](C)(O)C[C@@H](C)C/C=C/[C@H]3[C@@H]1O (some centres unmarked)", "Assigned class": "0 (no)"}
{"Compound": "Cc1c(Cl)cccc1NC(=O)/C=C/c1ccccc1", "Assigned class": "1 (yes)"}
{"Compound": "CCC1=C(C[C@H]2NCCc3cc(OC)c(OC)cc32)C[C@H]2c3cc(OC)c(OC)cc3CCN2C1", "Assigned class": "1 (yes)"}
{"Compound": "COc1cc([C@@H]2c3cc4c(c(O)c3C[C@H]3COC(=O)[C@@H]32)OCO4)cc(OC)c1OC", "Assigned class": "0 (no)"}
{"Compound": "O=C(Nc1cccc(C(F)(F)F)c1)C(=O)C(C(=O)c1ccc(Cl)c(Cl)c1)C1OC(=O)c2ccccc21 (centres unmarked)", "Assigned class": "1 (yes)"}
{"Compound": "CC[C@@]12CCCN3CC[C@]4(c5cccc(OC)c5N(C(C)=O)[C@@H]4CC1)[C@H]32", "Assigned class": "1 (yes)"}
{"Compound": "CCC[CH2][Pb]([Cl])([CH2]CCC)[CH2]CCC", "Assigned class": "0 (no)"}
{"Compound": "COc1ccc(C2C=C(c3ccc4c(c3)OCO4)Oc3c2c(=O)oc2ccccc32)cc1OC (centres unmarked)", "Assigned class": "1 (yes)"}
{"Compound": "Cc1cccc(Cl)c1NC(=O)/C=C/c1ccccc1", "Assigned class": "1 (yes)"}
{"Compound": "CCS(=O)(=O)O.CN(C)C(=O)c1cccc(COc2ccc(N3C(N)=NC(N)=NC3(C)C)cc2Cl)c1", "Assigned class": "1 (yes)"}
{"Compound": "COC(=O)/C(=N\\NC(=O)c1ccccc1O)C(C#N)c1ccccc1 (centres unmarked)", "Assigned class": "1 (yes)"}
{"Compound": "CC1=C[C@H]2O[C@@H]3[C@H](O)[C@@H](O)[C@](C)([C@@]2(CO)CC1)[C@]31CO1", "Assigned class": "0 (no)"}
{"Compound": "CN1c2c(nc(N)[nH]c2=O)NCC1CCNc1ccc(C(=O)N[C@@H](CCC(=O)[O-])C(=O)[O-])cc1.[Na+].[Na+] (some centres unmarked)", "Assigned class": "1 (yes)"}
{"Compound": "CCc1cccc(CC)c1NC(=O)C(C#N)C1=C(Cl)C(=O)c2ccccc2C1=O (centres unmarked)", "Assigned class": "1 (yes)"}
{"Compound": "[O-][S+]1c2ccccc2N=C(c2cccc3ccccc23)CC1c1cccc2ccccc12 (centres unmarked)", "Assigned class": "1 (yes)"}
{"Compound": "O=[N+]([O-])c1ccccc1S(=O)(=O)c1ccccc1[N+](=O)[O-]", "Assigned class": "1 (yes)"}
{"Compound": "CC1=C(O)c2ccccc2C(=O)C1=O", "Assigned class": "1 (yes)"}
{"Compound": "CC(C)(C)c1ccc(OC2CCO2)cc1 (centres unmarked)", "Assigned class": "0 (no)"}
{"Compound": "NC(=S)NN=Cc1ncccc1O", "Assigned class": "0 (no)"}
{"Compound": "Br.CCCCCC(CN1CCOCC1)C(=O)/C=C/c1ccccc1 (centres unmarked)", "Assigned class": "1 (yes)"}
{"Compound": "COc1cccc2c1C(=O)c1c(O)c3c(c(O)c1C2=O)C[C@@](O)(C(C)=O)C[C@@H]3O[C@@H]1C[C@@H](N(C)C)[C@@H](O)[C@@H](C)O1", "Assigned class": "1 (yes)"}
{"Compound": "CN(C)CC1CCC/C(=C\\c2ccc(OC(=O)/C=C/c3ccccc3)cc2)C1=O.Cl (centres unmarked)", "Assigned class": "0 (no)"}
{"Compound": "C[n+]1ccc(-c2cc[n+](C)cc2)cc1.[Cl-].[Cl-]", "Assigned class": "0 (no)"}
{"Compound": "O=C(CCc1ccccc1)On1nnc2ccccc2c1=O", "Assigned class": "1 (yes)"}
{"Compound": "C=C1CC(COc2cc(=O)oc3ccccc23)(c2ccccc2)OC1=O (centres unmarked)", "Assigned class": "1 (yes)"}
{"Compound": "CO[C@H]1/C=C\\C=C(/C)C(=O)NC2=CC(=O)C(N)=C(C[C@@H](C)C[C@H](OC)[C@H](O)[C@@H](C)/C=C(\\C)[C@@H]1OC(N)=O)C2=O", "Assigned class": "0 (no)"}
{"Compound": "Cl.Nc1ccc2cc3ccc(N)cc3nc2c1", "Assigned class": "0 (no)"}
{"Compound": "CCOc1cccc(/C=N/N=C2\\C(=O)Nc3c(Cl)cc(Cl)cc32)c1O", "Assigned class": "1 (yes)"}
